biological target: UniProtKB P09874; assay: PARP1 biochemical DELFIA assay (auto-PARylation); design: recombinant full length human N-terminally FLAG-tagged PARP1; conditions: binned IC50, PARP1 biochemical DELFIA assay
compounds and their reported IC50

Solved cases below.
- compound: "CNC(=O)c1ccc(N2CCC(N3CCC(c4nc5[nH]cc(C(F)(F)F)c5c(=O)[nH]4)C3)CC2)cn1 (racemic)"
  IC50: "< 10 nM"
- compound: "CNC(=O)c1ccc(N2CCC(N3CCOC(c4nc5ccccc5c(=O)[nH]4)C3)CC2)cn1 (single isomer, unassigned) [Compound 58a]"
  IC50: "< 10 nM"
- compound: "CCNC(=O)c1ccc(N2CCC(N3CCC(c4ccc(CC)c(=O)[nH]4)C3)CC2)cn1 (racemic)"
  IC50: "< 10 nM"
- compound: "CCNC(=O)c1ccc(N2CCC(N3CCCC(c4nc5ccccc5c(=O)[nH]4)C3)CC2)cn1 (single isomer, unassigned) [Compound 122a]"
  IC50: "< 10 nM"
- compound: "CNC(=O)c1ccc(N2CC(N3CCCC(c4nc5ccccc5c(=O)[nH]4)C3)C2)cn1 (single isomer, unassigned) [Compound 23b]"
  IC50: "1000 to 10000 nM"

Now let's try a different one.
## Input Identify the measured IC50 of CCc1nc(C(=O)NC)ccc1N1CCC(N2CCC(c3nc4ccccc4c(=O)[nH]3)C2)CC1 (single isomer, unassigned) [Compound 118a] for UniProtKB P09874.
## Output < 10 nM

###

target: full length N-terminally FLAG-tagged PARP1 (Homo sapiens, UniProt P09874); test: PARP1 biochemical DELFIA assay (auto-PARylation); design: recombinant full length human N-terminally FLAG-tagged PARP1; details: binned IC50, biochemical auto-PARylation assay
Sequence (P09874 whole entry): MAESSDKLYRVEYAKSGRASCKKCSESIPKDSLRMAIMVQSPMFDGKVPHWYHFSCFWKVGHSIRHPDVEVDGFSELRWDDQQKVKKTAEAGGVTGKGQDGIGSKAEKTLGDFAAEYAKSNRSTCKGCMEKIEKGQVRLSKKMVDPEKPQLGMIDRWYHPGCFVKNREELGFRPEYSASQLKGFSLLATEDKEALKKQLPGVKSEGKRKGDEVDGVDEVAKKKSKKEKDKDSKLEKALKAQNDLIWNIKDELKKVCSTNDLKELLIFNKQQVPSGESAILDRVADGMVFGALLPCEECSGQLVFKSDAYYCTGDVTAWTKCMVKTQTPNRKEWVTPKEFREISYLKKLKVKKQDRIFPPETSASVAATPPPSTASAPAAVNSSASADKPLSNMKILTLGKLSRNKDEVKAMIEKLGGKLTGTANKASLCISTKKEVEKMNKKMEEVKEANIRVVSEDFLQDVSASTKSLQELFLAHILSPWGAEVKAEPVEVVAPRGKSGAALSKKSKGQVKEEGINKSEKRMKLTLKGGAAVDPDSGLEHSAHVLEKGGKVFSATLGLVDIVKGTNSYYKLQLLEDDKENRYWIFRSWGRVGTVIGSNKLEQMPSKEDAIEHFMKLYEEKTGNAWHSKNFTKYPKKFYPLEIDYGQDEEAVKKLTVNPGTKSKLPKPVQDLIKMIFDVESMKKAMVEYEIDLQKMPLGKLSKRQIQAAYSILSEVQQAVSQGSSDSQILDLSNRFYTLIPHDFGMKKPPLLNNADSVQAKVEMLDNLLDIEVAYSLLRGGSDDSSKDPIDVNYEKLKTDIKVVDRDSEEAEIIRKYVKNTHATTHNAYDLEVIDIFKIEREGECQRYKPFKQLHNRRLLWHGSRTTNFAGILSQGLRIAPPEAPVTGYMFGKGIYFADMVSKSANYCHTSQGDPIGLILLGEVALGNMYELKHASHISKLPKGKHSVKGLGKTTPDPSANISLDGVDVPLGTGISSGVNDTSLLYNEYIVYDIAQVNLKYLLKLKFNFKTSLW
pIC50: −log10 of the molar value.
measured-endpoint: pIC50

Solved cases below.
- molecule: "CNC(=O)c1ccc(N2CCC(N3CCC(c4cc5ncc(Cl)cc5c(=O)[nH]4)C3)CC2)c(F)n1 (single isomer, unassigned) [Compound 344b]"
  reported-value: "> 8.00"
- molecule: "CNC(=O)c1ccc(N2CCC(N3CCC(c4cc5ncc(F)cc5c(=O)[nH]4)C3)CC2)cn1 (single isomer, unassigned) [Compound 315a]"
  reported-value: "> 8.00"

## Input Entry under review: `O=C(NC1CC1)c1ccc(N2CCC(N3CC4(c5nc6cccc(F)c6c(=O)[nH]5)CC3C4)CC2)c(F)n1` . Reported pIC50?
## Output > 8.00

## Input Entry under review: CNC1(c2ccc(N3CCC(N4CCC(c5nc6ccccc6c(=O)[nH]5)C4)CC3)cn2)CC1 (racemic) . Reported pIC50?
## Output 6.00 to 7.00

## Input Entry under review: CCc1ccc(C2CCN(C3CCN(c4ccc(C#N)cc4Cl)CC3)C2)[nH]c1=O (single isomer, unassigned) [Compound 377a] . Reported pIC50?
## Output 7.00 to 8.00

## Input Entry under review: CNC(=O)c1ccc(N2CCC(N3CCC(c4[nH]c(=O)c5c(F)cccc5c4F)C3)CC2)c(F)n1 (single isomer, unassigned) [Compound 402b] . Reported pIC50?
## Output > 8.00

## Input Entry under review: CNC(=O)c1ccc(N2CCC(N3CCC(c4nc5ncncc5c(=O)[nH]4)C3)CC2)cn1 (racemic) . Reported pIC50?
## Output 6.00 to 7.00

###

biological target: full length N-terminally FLAG-tagged PARP1 (Homo sapiens, UniProt P09874); assay: PARP1 probe displacement HTRF assay; details: read-out: PARP1 HTRF; binned Kd, probe displacement HTRF
measured-endpoint: Kd

- molecule: "CNC(=O)c1ccc(N2CCC(N3CCC(c4[nH]c(=O)c5cc(F)ccc5c4F)C3)CC2)cn1 (single isomer, unassigned) [Compound 370a]"
  measured-endpoint: "Kd"
  reported-value: "< 10 nM"

## Input Entry under review: CNC(=O)c1csc(N2CCC(N3CCC(c4cc5ccccc5c(=O)[nH]4)C3)CC2)n1 (single isomer, unassigned) [Compound 274a] . Reported Kd?
## Output 100 to 1000 nM

###

compounds and their reported IC50
target: full length N-terminally FLAG-tagged PARP1 (Homo sapiens, UniProt P09874); experiment: PARP1 biochemical DELFIA assay (auto-PARylation); set-up: recombinant full length human N-terminally FLAG-tagged PARP1; conditions: binned IC50, PARP1 biochemical DELFIA assay

Solved cases below.
- compound: "CNC(=O)c1ccc(N2CCC(CN3CCCC(c4nc5ccccc5c(=O)[nH]4)C3)CC2)cn1 (single isomer, unassigned) [Compound 9a]"
  IC50: "10 to 100 nM"
- compound: "CNC(=O)c1ccc(N2CCC(c3nc4ccccc4c(=O)[nH]3)CC2)cn1"
  IC50: "1000 to 10000 nM"
- compound: "CNC(=O)c1ccc(N2CCC(N3CCC(c4ccc(CC(F)(F)F)c(=O)[nH]4)C3)CC2)cn1 (single isomer, unassigned) [Compound 188b]"
  IC50: "< 10 nM"
- compound: "CNC(=O)c1ccc(N2CCC(N3CCC(c4ncc(C)c(=O)[nH]4)C3)CC2)cn1 (single isomer, unassigned) [Compound 35b]"
  IC50: "10 to 100 nM"

## Input Entry under review: O=C(NCC(F)(F)F)c1ccc(N2CCC(N3CCCC(c4nc5ccccc5c(=O)[nH]4)C3)CC2)cn1 (single isomer, unassigned) [Compound 115a] . Reported IC50?
## Output 100 to 1000 nM

## Input Entry under review: CNC(=O)c1ccc(N2CCC(N3CCC(c4nc5c(C)cn(C)c5c(=O)[nH]4)C3)CC2)cn1 (racemic) . Reported IC50?
## Output < 10 nM

## Input Entry under review: CNC(=O)c1ccc(N2CCC(N3CCC(c4nc5ccccc5c(=O)[nH]4)C3)CC2)cn1 (racemic) [Compound 10rac] . Reported IC50?
## Output < 10 nM

###

biological target: full length N-terminally FLAG-tagged PARP1 (Homo sapiens, UniProt P09874); assay: PARP1 biochemical DELFIA assay (auto-PARylation); parameters: recombinant full length human N-terminally FLAG-tagged PARP1; settings: binned IC50, biochemical auto-PARylation assay
molecules and their reported IC50

Solved cases below.
- molecule: "CNC(=O)c1ccc(N2CCC(N3CCC(c4cc5cccc(F)c5c(=O)[nH]4)C3)CC2)cc1F (single isomer, unassigned) [Compound 281a]"
  tested-system: "full length N-terminally FLAG-tagged PARP1 (Homo sapiens, UniProt P09874)"
  measured-endpoint: "IC50"
  reported-value: "< 10 nM"
- molecule: "CCc1cc(Cl)c(C2CCN(C3CCN(c4ccc(C(=O)NC)nc4)CC3)C2)[nH]c1=O (racemic)"
  tested-system: "full length N-terminally FLAG-tagged PARP1 (Homo sapiens, UniProt P09874)"
  measured-endpoint: "IC50"
  reported-value: "< 10 nM"
- molecule: "CNC(=O)c1ccc(N2CCC(N3CCC(c4cc5cccc(OC)c5c(=O)[nH]4)C3)CC2)cn1 (single isomer, unassigned) [Compound 249b]"
  tested-system: "full length N-terminally FLAG-tagged PARP1 (Homo sapiens, UniProt P09874)"
  measured-endpoint: "IC50"
  reported-value: "100 to 1000 nM"
- molecule: "CNC(=O)c1ccc(N2CCC(N3CC4(c5nc6ccccc6c(=O)[nH]5)CCC3C4)CC2)cn1 (single isomer, unassigned) [Compound 245a]"
  tested-system: "full length N-terminally FLAG-tagged PARP1 (Homo sapiens, UniProt P09874)"
  measured-endpoint: "IC50"
  reported-value: "< 10 nM"
- molecule: "CNC(=O)c1ccc(N2CCC(N3CCC(c4ccc(CCO)c(=O)[nH]4)C3)CC2)cn1 (racemic)"
  tested-system: "full length N-terminally FLAG-tagged PARP1 (Homo sapiens, UniProt P09874)"
  measured-endpoint: "IC50"
  reported-value: "10 to 100 nM"

Now let's try a different one.
## Input Entry under review: CNC(=O)c1ncc(N2CCC(N3CCC(c4cc5ccc(F)cc5c(=O)[nH]4)C3)CC2)c(C(F)(F)F)n1 (single isomer, unassigned) [Compound 266b] . Reported IC50?
## Output 10 to 100 nM

###

biological target: full length N-terminally FLAG-tagged PARP1 (Homo sapiens, UniProt P09874); assay: PARP1 biochemical DELFIA assay (auto-PARylation); parameters: recombinant full length human N-terminally FLAG-tagged PARP1; conditions: binned IC50, biochemical auto-PARylation assay
measured-endpoint: IC50

- compound: "CNC(=O)c1cc(C)c(N2CCC(N3CCC(c4nc5ccccc5c(=O)[nH]4)C3)CC2)c(C)n1 (single isomer, unassigned) [Compound 224a]"
  tested-system: "full length N-terminally FLAG-tagged PARP1 (Homo sapiens, UniProt P09874)"
  IC50: "100 to 1000 nM"

## Input Entry under review: N#Cc1ccc(N2CCC(N3CCC(c4cc5ccc(F)cc5c(=O)[nH]4)C3)CC2)c(Cl)c1 (single isomer, unassigned) [Compound 386b] . Reported IC50?
## Output < 10 nM

## Input Entry under review: Cc1cnc(-c2ccc(N3CCC(N4CCC(c5nc6ccccc6c(=O)[nH]5)C4)CC3)cn2)n1C (racemic) . Reported IC50?
## Output 100 to 1000 nM

## Input Entry under review: CNC(=O)c1ccc(N2CCC(N3CCC(c4[nH]c(=O)c5ccccc5c4C(F)(F)F)C3)CC2)cn1 (single isomer, unassigned) [Compound 404a] . Reported IC50?
## Output 10 to 100 nM

## Input Entry under review: CNC(=O)c1ncc(N2CCC(N3CCC(c4cc5cccc(F)c5c(=O)[nH]4)C3)CC2)cn1 (racemic) . Reported IC50?
## Output < 10 nM

## Input Entry under review: CNC(=O)c1ccc(N2CCC(N3CCC(c4ccc(CC(F)F)c(=O)[nH]4)C3)CC2)cn1 (racemic) . Reported IC50?
## Output < 10 nM
